Measured pIC50 values are reported for all entries that follow.
# tested-target: UniProtKB P0AEK4
# Sequence (P0AEK4 whole entry): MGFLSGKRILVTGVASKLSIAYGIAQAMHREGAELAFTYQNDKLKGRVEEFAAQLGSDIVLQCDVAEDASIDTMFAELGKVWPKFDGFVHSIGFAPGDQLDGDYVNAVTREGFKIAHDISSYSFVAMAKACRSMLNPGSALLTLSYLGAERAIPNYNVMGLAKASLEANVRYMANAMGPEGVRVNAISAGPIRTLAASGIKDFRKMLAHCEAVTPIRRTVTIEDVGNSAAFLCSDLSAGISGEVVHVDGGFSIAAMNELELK
# procedure-text: Antibacterial activity against Escherichia coli FabI
pIC50 here: minus log base 10 of the concentration, concentration in moles per litre.

# annotated cases, reported pIC50 shown
O=C(c1ccc(Cl)cc1Cl)N1CCc2c(n(Cc3ccc(O)cc3)c3ccccc23)C1; 4.45
O=C(c1ccc(Cl)cc1O)N1CCc2c(n(Cc3ccc(O)cc3)c3ccccc23)C1; 5.21
O=C(c1ccc(O)c(Cl)c1)N1CCc2c(n(Cc3ccc(O)cc3)c3ccccc23)C1; 5.47
Cc1cc(C(=O)N2CCc3c(n(Cc4ccc(O)cc4)c4ccccc34)C2)cc(C)c1O; 4.64
CS(=O)(=O)c1ccc(Cn2c3c(c4ccccc42)CCN(C(=O)c2ccc(O)cc2)C3)cc1; 5.35

Exam item: Sample "O=C(c1ccc(O)cc1)N1CCc2c(n(Cc3ccc(F)cc3)c3ccccc23)C1" — what was its pIC50?
Marked response: 5.38

Exam item: Sample "O=C(c1ccccc1O)N1CCc2c(n(Cc3ccc(O)cc3)c3ccccc23)C1" — what was its pIC50?
Marked response: 5.37

Exam item: Sample "O=C(c1cc(Cl)cc(Cl)c1O)N1CCc2c(n(Cc3ccc(O)cc3)c3ccccc23)C1" — what was its pIC50?
Marked response: 5.00

Exam item: Sample "Cc1ccc(C(=O)N2CCc3c(n(Cc4ccc(O)cc4)c4ccccc34)C2)cc1" — what was its pIC50?
Marked response: 5.28

* * *

# Tested on: Staphylococcus aureus
# procedure-text: In vitro antibacterial activity against Staphylococcus aureus FabI
Measured MIC values are reported for all entries that follow.
Give just the numeric value; µg/mL need not be written.

# annotated cases, reported MIC shown
O=C(c1ccc(O)c(Cl)c1)N1CCc2c(n(Cc3ccc(O)cc3)c3ccccc23)C1; 1
O=C(c1ccc(Cl)cc1)N1CCc2c(n(Cc3ccc(O)cc3)c3ccccc23)C1; 4

Exam item: Sample "Cc1ccc(C(=O)N2CCc3c(n(Cc4ccc(O)cc4)c4ccccc34)C2)cc1" — what was its MIC?
Marked response: 0.5

Exam item: Sample "O=C(c1ccc(O)cc1)N1CCc2c(n(Cc3ccc(O)cc3)c3ccccc23)C1" — what was its MIC?
Marked response: 0.5

Exam item: Sample "O=C(c1ccc(Cl)cc1O)N1CCc2c(n(Cc3ccc(O)cc3)c3ccccc23)C1" — what was its MIC?
Marked response: 1

Exam item: Sample "Oc1cc(Cl)ccc1Oc1ccc(Cl)cc1Cl" — what was its MIC?
Marked response: 0.03

* * *

log10(IC50), Enoyl-[acyl-carrier-protein] reductase [NADPH] FabI (Staphylococcus aureus), per-entry values.
Heads up, the numbers here are log10 of IC50 in µM units.

# annotated cases, reported log10(IC50) shown
O=C(c1ccccc1O)N1CCc2c(n(Cc3ccc(O)cc3)c3ccccc23)C1; -0.14
Cc1cc(C(=O)N2CCc3c(n(Cc4ccc(O)cc4)c4ccccc34)C2)ccc1O; -0.74

Exam item: Form field - read-out: log10(IC50); system: Enoyl-[acyl-carrier-protein] reductase [NADPH] FabI (Staphylococcus aureus); submitted item: "CN(Cc1cc2ccccc2n1Cc1ccc(O)cc1)C(=O)c1ccc(O)cc1"
Sequence (Q6GI75 whole entry): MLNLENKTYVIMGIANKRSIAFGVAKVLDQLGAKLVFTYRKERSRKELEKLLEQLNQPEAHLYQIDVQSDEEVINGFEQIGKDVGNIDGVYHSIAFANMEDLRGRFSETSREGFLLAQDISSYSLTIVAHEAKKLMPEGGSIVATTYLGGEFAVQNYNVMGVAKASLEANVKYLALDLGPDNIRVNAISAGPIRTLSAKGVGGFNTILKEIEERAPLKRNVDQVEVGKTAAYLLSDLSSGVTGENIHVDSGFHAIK
Marked response: 0.00

Exam item: Form field - read-out: log10(IC50); system: Enoyl-[acyl-carrier-protein] reductase [NADPH] FabI (Staphylococcus aureus); submitted item: "Cc1cc(C(=O)N2CCc3c(n(Cc4ccc(O)cc4)c4ccccc34)C2)cc(C)c1O"
Marked response: 0.46

Exam item: Form field - read-out: log10(IC50); system: Enoyl-[acyl-carrier-protein] reductase [NADPH] FabI (Staphylococcus aureus); submitted item: "O=C(c1cccc(O)c1)N1CCc2c(n(Cc3ccc(O)cc3)c3ccccc23)C1"
Marked response: 0.53

Exam item: Form field - read-out: log10(IC50); system: Enoyl-[acyl-carrier-protein] reductase [NADPH] FabI (Staphylococcus aureus); submitted item: "O=C(c1cc(Cl)cc(Cl)c1O)N1CCc2c(n(Cc3ccc(O)cc3)c3ccccc23)C1"
Marked response: 0.26

Exam item: Form field - read-out: log10(IC50); system: Enoyl-[acyl-carrier-protein] reductase [NADPH] FabI (Staphylococcus aureus); submitted item: "O=C(c1ccc(O)cc1)N1CCc2c(c3ccccc3n2Cc2ccc(O)cc2)C1"
Marked response: 1.51

Exam item: Form field - read-out: log10(IC50); system: Enoyl-[acyl-carrier-protein] reductase [NADPH] FabI (Staphylococcus aureus); submitted item: "O=C(c1ccc(Cl)cc1O)N1CCc2c(n(Cc3ccc(O)cc3)c3ccccc23)C1"
Marked response: -0.80

Exam item: Form field - read-out: log10(IC50); system: Enoyl-[acyl-carrier-protein] reductase [NADPH] FabI (Staphylococcus aureus); submitted item: "Cc1ccc(C(=O)N2CCc3c(n(Cc4ccc(O)cc4)c4ccccc34)C2)cc1"
Marked response: -0.62

Exam item: Form field - read-out: log10(IC50); system: Enoyl-[acyl-carrier-protein] reductase [NADPH] FabI (Staphylococcus aureus); submitted item: "O=C(c1ccc(O)c(Cl)c1)N1CCc2c(n(Cc3ccc(O)cc3)c3ccccc23)C1"
Marked response: -0.80
